- targetUnderTest: SARS-CoV-2 NSP3 macrodomain (Mac1) (Severe acute respiratory syndrome coronavirus 2)
- Assay type: binding
- experimentalConditions: PanDDA background density correction factor
quantity: 1-BDC
When you answer, write just the number.

Here's what some known entries look like.
compound="CO[C@@H]1C[C@H](CO)N(c2ncnc3[nH]ccc23)C1 [AVI-3656]" targetundertest="SARS-CoV-2 NSP3 macrodomain (Mac1) (Severe acute respiratory syndrome coronavirus 2)" quantity=1-BDC observedvalue=0.26
compound="O[C@H]1CC[C@@H]2CCN(c3ncnc4[nH]ccc34)[C@@H]21 [AVI-3664]" targetundertest="SARS-CoV-2 NSP3 macrodomain (Mac1) (Severe acute respiratory syndrome coronavirus 2)" quantity=1-BDC observedvalue=0.16
compound="OCC(CC1CCCO1)Nc1ncnc2[nH]ccc12 (centres unmarked) [AVI-3660]" targetundertest="SARS-CoV-2 NSP3 macrodomain (Mac1) (Severe acute respiratory syndrome coronavirus 2)" quantity=1-BDC observedvalue=0.23
compound="CC(C)(C)C1CCC(CO)N(c2ncnc3[nH]ccc23)C1 (centres unmarked) [AVI-3719]" targetundertest="SARS-CoV-2 NSP3 macrodomain (Mac1) (Severe acute respiratory syndrome coronavirus 2)" quantity=1-BDC observedvalue=0.08

Look at this compound and give its reported 1-BDC. OCC(Cc1ccccc1)Nc1ncnc2[nH]ccc12 (centres unmarked) [AVI-313] 0.18

###

- targetUnderTest: SARS-CoV-2 NSP3 macrodomain (Mac1) (Severe acute respiratory syndrome coronavirus 2, UniProt P0DTD1)
- Type: binding
- experimentalConditions: crystal soak concentration 20 mM, DMSO background map, event 1
quantity: 1-BDC (PanDDA run, DMSO background map)
Enter the number alone.

Example cases with answers are listed next.
compound="CC1CCN(C(=O)c2ccc3c(c2)nc(CO)n3C)CC1C(=O)O (centres unmarked)" observedvalue=0.34
compound=O=C(Nc1ccsc1C(=O)O)c1ccc2c(c1)OCO2 observedvalue=0.12
compound=CC(C)n1nnnc1SCc1c(C(=O)O)sc2cccc(F)c12 observedvalue=0.34
compound="O=C(O)C1CCCN1S(=O)(=O)c1cccc2nsnc12 (centres unmarked)" observedvalue=0.22
compound=Cc1cc2c(=O)n(CCN3C(=O)c4ccccc4S3(=O)=O)nnc2s1 observedvalue=0.19
compound="O=C(O)C(c1ccccc1)n1sc2ccccc2c1=O (centres unmarked)" observedvalue=0.37
compound="CC1CC(C(=O)O)CCN1C(=O)c1ccc2c(c1)OCC(=O)N2 (centres unmarked)" observedvalue=0.19
compound=CNc1ccc(NS(=O)(=O)c2cc3cccc(C)c3s2)cn1 observedvalue=0.26
compound=COc1ccc(NC(=O)NC2CCCC2)cc1-n1nnnc1C observedvalue=0.12
compound="OCC(Cc1ccccc1)Nc1ncnc2[nH]ccc12 (centres unmarked)" observedvalue=0.25

Please report the recorded 1-BDC (PanDDA run, DMSO background map) for O=C1CCc2cc(C(=O)N3CC(C(=O)O)CCC34CCCC4)c(F)cc2N1 (centres unmarked) . 0.07

###

- targetUnderTest: SARS-CoV-2 NSP3 macrodomain (Mac1) (Severe acute respiratory syndrome coronavirus 2, UniProt P0DTD1)
- methodSummary: biochemical
- Type: binding
- experimentalConditions: HTRF binding curve, SARS-CoV-2 Mac1
quantity: Hill slope
Format: numeric value only, no unit, no commentary.

Dear colleague, I am looking for the recorded Hill slope of the following molecule: OC1(CNc2ncnc3[nH]ccc23)CCC2(CC1)OCCO2 [AVI-4315] 1.2

What value of measured Hill slope is listed for C[C@H]1CC[C@H](CO)N(c2ncnc3[nH]ccc23)C1 [AVI-4063] ? 1.1

Value lookup for Hill slope; key = O[C@H]1CC[C@@H]2CCN(c3ncnc4[nH]ccc34)[C@@H]21 [AVI-3664] 1.2

###

- targetUnderTest: SARS-CoV-2 NSP3 macrodomain (Mac1) (Severe acute respiratory syndrome coronavirus 2)
- Type: binding
- experimentalConditions: crystal soak 10 mM, P43 crystal form
quantity: PanDDA run, overall: Hit

Some molecules with recorded PanDDA run, overall: Hit:
molecule=CO[C@@H]1C[C@H](CO)N(c2ncnc3[nH]ccc23)C1 quantity="PanDDA run, overall: Hit" observedvalue=TRUE
molecule="OC1CCN(c2ncnc3[nH]ccc23)C1 (stereo not shown)" quantity="PanDDA run, overall: Hit" observedvalue=TRUE
molecule=CCC(CC)(CO)Nc1ncnc2[nH]ccc12 quantity="PanDDA run, overall: Hit" observedvalue=TRUE
molecule=O=C(O)C(F)(F)F.OCC1(Nc2ncnc3[nH]ccc23)CCCC1 quantity="PanDDA run, overall: Hit" observedvalue=TRUE
molecule="C#CCC(CO)Nc1ncnc2[nH]ccc12 (stereo not shown)" quantity="PanDDA run, overall: Hit" observedvalue=TRUE
molecule=CC1(C)C[C@@H](CO)N(c2ncnc3[nH]ccc23)C1.O=C(O)C(F)(F)F quantity="PanDDA run, overall: Hit" observedvalue=TRUE

// fetch SARS-CoV-2 NSP3 macrodomain (Mac1) (Severe acute respiratory syndrome coronavirus 2) PanDDA run, overall: Hit for OCC(CC1CCC1)Nc1ncnc2[nH]ccc12 (stereo not shown) TRUE

Lookup: PanDDA run, overall: Hit / SARS-CoV-2 NSP3 macrodomain (Mac1) (Severe acute respiratory syndrome coronavirus 2) / OCC(Cc1cncs1)Nc1ncnc2[nH]ccc12 (stereo not shown) TRUE

Request - read-out PanDDA run, overall: Hit | tested on SARS-CoV-2 NSP3 macrodomain (Mac1) (Severe acute respiratory syndrome coronavirus 2) | molecule O[C@H]1CC[C@@H]2CCN(c3ncnc4[nH]ccc34)[C@@H]21 TRUE

Param readout = PanDDA run, overall: Hit; param system = SARS-CoV-2 NSP3 macrodomain (Mac1) (Severe acute respiratory syndrome coronavirus 2); param query = OC(c1ccccc1)C1CCCN1c1ncnc2[nH]ccc12 (stereo not shown) ; response: value TRUE

###

- targetUnderTest: SARS-CoV-2 NSP3 macrodomain (Mac1) (Severe acute respiratory syndrome coronavirus 2, UniProt P0DTD1)
- Format: binding
- experimentalConditions: crystal soak 10 mM; DMSO background map
quantity: PanDDA run, DMSO background map: 1-BDC
Form rule: numeric answer, no unit written next to it.

As a guide, the following entries are already answered.
compound="CC1(C)CCC(CO)N(c2ncnc3[nH]ccc23)C1 (stereo not drawn)" quantity="PanDDA run, DMSO background map: 1-BDC" observedvalue=0.17
compound="OCC(Nc1ncnc2[nH]ccc12)C1CC1 (stereo not drawn)" quantity="PanDDA run, DMSO background map: 1-BDC" observedvalue=0.18
compound="OCC(Cc1c[nH]c2ccccc12)Nc1ncnc2[nH]ccc12 (stereo not drawn)" quantity="PanDDA run, DMSO background map: 1-BDC" observedvalue=0.15
compound="OC1CCN(c2ncnc3[nH]ccc23)C1 (stereo not drawn)" quantity="PanDDA run, DMSO background map: 1-BDC" observedvalue=0.15
compound="CCC(C)(CO)Nc1ncnc2[nH]ccc12 (stereo not drawn)" quantity="PanDDA run, DMSO background map: 1-BDC" observedvalue=0.16

// next entry
Endpoint output: PanDDA run, DMSO background map: 1-BDC of C#CCC(CO)Nc1ncnc2[nH]ccc12 (stereo not drawn) . Value? 0.18

###

- targetUnderTest: SARS-CoV-2 NSP3 macrodomain (Mac1) (Severe acute respiratory syndrome coronavirus 2, UniProt P0DTD1)
- Format: binding
- experimentalConditions: occupancy estimate from PanDDA
quantity: 2*(1-BDC) (%)
Phrase the answer as number then unit, nothing more needed.

Reference set (2 entries):
compound="CCC(Nc1ncnc2[nH]ccc12)C(C)O (centres unmarked)" observedvalue=28%
compound=O[C@H]1COC[C@@H]1Nc1ncnc2[nH]ccc12 observedvalue=16%

For the compound OC[C@@H]1C[C@@H]2CCC[C@@H]2N1c1ncnc2[nH]ccc12 , what 2*(1-BDC) (%) is on record? 58%

Requested field: 2*(1-BDC) (%). Item: O=C(O)C(F)(F)F.OCC1(Nc2ncnc3[nH]ccc23)CCC1 36%

What does the record list as 2*(1-BDC) (%) for OCC(Cc1cncs1)Nc1ncnc2[nH]ccc12 (centres unmarked) ? 30%

Return reported 2*(1-BDC) (%); argument: OCC(Cc1ccc(I)cc1)Nc1ncnc2[nH]ccc12 (centres unmarked) 40%

Param item = CC(C)n1nnnc1SCc1c(C(=O)O)sc2cccc(F)c12 ; retrieve measured 2*(1-BDC) (%). 68%

Request the reported 2*(1-BDC) (%) associated with OCC1C=CCCN1c1ncnc2[nH]ccc12 (centres unmarked) 38%

###

- targetUnderTest: SARS-CoV-2 NSP3 macrodomain (Mac1) (Severe acute respiratory syndrome coronavirus 2)
- Format: binding
- experimentalConditions: refined crystallographic occupancy
quantity: Refined ligand occupancy (%)

compound="OCC(Nc1ncnc2[nH]ccc12)C1CC1 (centres unmarked)" observedvalue=36%
compound=CO[C@@H]1C[C@H](CO)N(c2ncnc3[nH]ccc23)C1 observedvalue=52%
compound="OCC(Cc1c[nH]c2ccccc12)Nc1ncnc2[nH]ccc12 (centres unmarked)" observedvalue=30%
compound="OCC(CC1CCCCC1)Nc1ncnc2[nH]ccc12 (centres unmarked)" observedvalue=24%
compound=Cc1c(C)n(Cc2ccccc2)c2ncnc(N)c12 observedvalue=16%

In the following, a different compound is considered.
Request body: readout Refined ligand occupancy (%), system SARS-CoV-2 NSP3 macrodomain (Mac1) (Severe acute respiratory syndrome coronavirus 2), query OCC(Cc1ccc(I)cc1)Nc1ncnc2[nH]ccc12 (centres unmarked) . Return the value. 40%
